Tested on: Staphylococcus aureus
Test: Antibacterial activity against methicillin-susceptible Staphylococcus aureus ATCC 25923 assessed as inhibition of bacterial growth incubated for 18 hrs by broth microdilution method
Format: functional
MEASURED PARAMETER: MIC (µg/mL)
Please reply with the bare figure in µg/mL and do not write the unit itself.

Completed entries (count: 3):
COMPOUND	TEST SYSTEM	MEASURED PARAMETER	ENDPOINT RESULT
O=C(Nc1cccc(Cl)c1)NC1CCN(CCC(Oc2ccccc2C(F)(F)F)c2ccccc2)CC1 (racemic)	Staphylococcus aureus	MIC	3.12
O=C(Nc1ccc(F)cc1)NC1CCN(CCC(Oc2ccc(C(F)(F)F)cc2)c2ccccc2)CC1 (racemic)	Staphylococcus aureus	MIC	6.25
O=C(Nc1cccc(Cl)c1)NC1CCN(CCC(Oc2ccc(Cl)cc2)c2ccccc2)CC1 (racemic)	Staphylococcus aureus	MIC	3.12

Give MIC for COc1cccc(OC(CCN2CCC(NC(=O)Nc3cccc(Cl)c3)CC2)c2ccccc2)c1 (racemic) 12.5

Give MIC for CC(=O)NC[C@H]1CN(c2ccc(N3CCOCC3)c(F)c2)C(=O)O1 [LINEZOLID] 3.12

Give MIC for CN[C@H](CC(C)C)C(=O)N[C@H]1C(=O)N[C@@H](CC(N)=O)C(=O)N[C@H]2C(=O)N[C@H]3C(=O)N[C@H](C(=O)N[C@H](C(=O)O)c4cc(O)cc(O)c4-c4cc3ccc4O)[C@H](O)c3ccc(c(Cl)c3)Oc3cc2cc(c3O[C@@H]2O[C@H](CO)[C@@H](O)[C@H](O)[C@H]2O[C@H]2C[C@](C)(N)[C@H](O)[C@H](C)O2)Oc2ccc(cc2Cl)[C@H]1O [VANCOMYCIN] 0.78

Give MIC for O=C(Nc1cccc(Cl)c1)NC1CCN(CCC(Oc2cccc(Cl)c2)c2ccccc2)CC1 (racemic) 3.12

Each recorded value in this set is attributed to ChEMBL document CHEMBL5346933.
